system: MS2 coat protein; experiment: apparent KD of MS2 coat protein; higher = weaker reporter binding; conditions: Eterna round: R107; input ligand: theophylline 2 mM
# thresholds on apparent KD of MS2 coat protein define classes: I: < 30 nM; II: ≥ 30 nM and < 200 nM; III: ≥ 200 nM

{"columns": ["Sequence input", "Target of assay", "Group label"],
 "data": [
  ["CUUAUAUAUAGAAGGAGCGACAUGAGGAUCACCCAUGUCUACCACGUCGAAAGACGCUCAUGUCAGGUAGGUCGCUAUAUAUAAG [Astros-Eli-mod3]", "MS2 coat protein", "II"],
  ["AUAUUAAUCGGAAGGAGCGGUACAUGAGGAUCACCCAUGUGGUAAGCUAGCAGAUCCCGUUACCAGGUAGGUCGCCGAGUUAUGA [XArg-B17]", "MS2 coat protein", "III"],
  ["CGGGACAUGAGGAUCACCCAUGUACGAUCCCGAGGACCGGUACGGCCGCCACUCGCUAGCGUUGAGUCGCGACUUUCAUAACUAA [theeternabot_sameState_MS2_Trp_A_27]", "MS2 coat protein", "II"],
  ["ACAUGAGGGAUGGAUACCAGCGACAUGAGGAUCACCCAUGUAUGAGGAUCAGCCAUGUUAUGCCCUUGGCAGCCACGAACAUGAG [ACFMULLIN]", "MS2 coat protein", "III"],
  ["AAUACCGGUCCUCGAGGGUGAUCCUCAUGACGAGGACCGGUACGGCCGCCACUCGAUAACAUGAGGAUCACCCAUGUAAUCGAGU [|T'-M'-Trp-Ms2|_Design7b]", "MS2 coat protein", "II"],
  ["AACGAGUGGCGGCCAUUGGGUGAUCCUCUACGAGGACCGGUACGGCCGCCACUCGAUAACAUGAGGAUCACCCAUGUGCCGAUAA [|T'-M'-Trp-Ms2|_Design10b]", "MS2 coat protein", "III"],
  ["GCAUCCUAGUCGGCCGCCACUGGGUGUACCCAGUGCUGGUACAAACAUGAGGAUCACCCAUGUACCAGGACCGGGACUAGGAUGC [(Trp1)-(MT2)''-(T1)'-(MT2)'-(Ms2)-(Trp2)_Design4]", "MS2 coat protein", "I"],
  ["GUAAUAUACAGAAGGAGCGUGAUAGUGAGCUUGUACAACAUGAGGAUCACCCAUGUAUAAUCACAGGUAGGUCGCUGUAUAGGGU [Arg B SS t2]", "MS2 coat protein", "I"],
  ["CCCAGUUAUAUCAAAGGAAUUAUACUCGAAGGAGCGUCAUAGUAGGCAGGUAGGUCGCGAGACAUGAGGAUCACCCAUGUAGAGA [pxpmullin]", "MS2 coat protein", "II"],
  ["UAUCCACAUGAGGAUCACCCAUGUAGGGAAGGAGCGGUGAUUUCACCAGGUAGGUCGCCUUGCUCAGGGUUGCCGGUGGAAUCGU [Exclusion - Arginine A (Freestyle 34)]", "MS2 coat protein", "I"],
  ["CACGGACGAGUGGAUCACCCUUGUAAUAACCGAGGACCGGUACGGCCGCCACUCGAAAACCGUGACCUGUACGAAAAGUGCAGGA", "MS2 coat protein", "III"],
  ["CCUAUCCAGUCGGCCGCCACUGAAAACAGUGGGUGAACAUGAGGAUCACCCAUGUAGGAUUUCCACAGGACCGGGACUGUAUAGG [Ex Tryptophan B 24]", "MS2 coat protein", "III"]
]}
